test system: E. coli TESEC Mtb Alr; assay: growth (OD600 after 10 h); higher = more growth (less inhibition); conditions: arabinose 10000000 nM; compound 0.1 mM; raw OD600 reference: median of DMSO wells […], cell-free background 0.052
Structures can show the parent of a compound that is named as a salt.
readout-type: growth
Kindly provide the number alone.

| molecule | growth |
| --- | --- |
| O=[N+]([O-])O[C@H]1CO[C@H]2[C@@H]1OC[C@H]2O[N+](=O)[O-] [Isosorbide dinitrate] | 0.343 |

CN1CCN(C(=O)OC2c3nccnc3C(=O)N2c2ccc(Cl)cn2)CC1 (centres undefined) yielded growth of 0.357

C[C@@]12N[C@@H](Cc3ccccc31)c1ccccc12 [(-)-MK 801 hydrogen maleate] yielded growth of 0.286

CN(C)[C@@H]1C(=O)C(C(N)=O)=C(O)[C@@]2(O)C(=O)C3=C(O)c4c(O)ccc(Cl)c4[C@@](C)(O)[C@H]3C[C@@H]12 [Chlortetracycline hydrochloride] yielded growth of 0.0506

Each recorded value in this set is attributed to the supplement of paper PMC9262897.
